Where do these numbers come from? They come from patent US20150307520A1.

Molecular target: p110γ (Homo sapiens)
Sequence (P48736 whole entry): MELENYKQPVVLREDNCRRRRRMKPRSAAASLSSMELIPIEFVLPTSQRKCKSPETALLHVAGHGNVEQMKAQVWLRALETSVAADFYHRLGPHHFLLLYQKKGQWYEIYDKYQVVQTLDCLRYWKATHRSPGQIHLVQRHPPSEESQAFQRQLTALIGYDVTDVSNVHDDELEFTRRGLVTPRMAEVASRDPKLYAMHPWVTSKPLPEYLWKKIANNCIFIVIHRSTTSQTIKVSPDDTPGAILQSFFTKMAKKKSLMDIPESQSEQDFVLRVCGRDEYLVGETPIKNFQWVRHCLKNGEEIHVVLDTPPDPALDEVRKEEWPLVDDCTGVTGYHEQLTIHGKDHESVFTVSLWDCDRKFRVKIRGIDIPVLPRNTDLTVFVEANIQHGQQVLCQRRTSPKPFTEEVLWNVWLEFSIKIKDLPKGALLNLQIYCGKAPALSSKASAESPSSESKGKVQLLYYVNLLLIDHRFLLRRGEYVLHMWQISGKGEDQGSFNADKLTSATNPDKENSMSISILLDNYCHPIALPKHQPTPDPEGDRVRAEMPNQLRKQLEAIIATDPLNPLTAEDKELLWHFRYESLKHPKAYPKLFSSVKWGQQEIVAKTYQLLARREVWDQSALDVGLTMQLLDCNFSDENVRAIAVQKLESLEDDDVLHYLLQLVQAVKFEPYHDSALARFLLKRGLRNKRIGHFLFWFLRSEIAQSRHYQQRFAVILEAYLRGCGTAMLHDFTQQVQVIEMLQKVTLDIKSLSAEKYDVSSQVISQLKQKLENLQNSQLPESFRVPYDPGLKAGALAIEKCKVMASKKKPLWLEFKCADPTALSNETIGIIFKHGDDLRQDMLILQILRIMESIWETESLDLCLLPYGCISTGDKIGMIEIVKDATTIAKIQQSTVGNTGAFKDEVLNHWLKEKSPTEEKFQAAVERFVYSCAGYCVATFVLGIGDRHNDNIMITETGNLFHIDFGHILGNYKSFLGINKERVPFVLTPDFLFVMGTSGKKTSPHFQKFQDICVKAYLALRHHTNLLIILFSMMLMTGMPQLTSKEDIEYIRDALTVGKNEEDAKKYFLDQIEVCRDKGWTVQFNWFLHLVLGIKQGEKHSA
Assay: Transcreener KINASE Assay, kinase inhibition of p110γ
Assay type: biochemical
Conditions: 1 uM test compound
Quantity Name: PI3Kγ IH % @ 1 uM (%)

Previously resolved entries follow.
INSERT INTO assay_data (structure_as_smiles, measurement) VALUES
  ('N#Cc1ncc(-c2c[nH]c3ncnc(N4CC[C@H]4c4nn5ccc(Cl)c5c(=O)n4-c4ccccc4)c23)cn1', 98.2),
  ('O=c1c2c(Cl)ccn2nc([C@@H]2CC(F)(F)CN2c2ncnc3[nH]cnc23)n1-c1ccccc1', 88.3);

(I) CC(=O)c1cnc(N)nc1N1CC[C@H]1c1nn2ccc(Cl)c2c(=O)n1-c1cccc(F)c1
(II) N#Cc1c[nH]c2ncnc(N3CC[C@H]3c3nn4ccc(Cl)c4c(=O)n3Cc3cccnc3)c12
Prompt line: I'd appreciate it if you could identify which of I and II has the greater PI3Kγ IH % @ 1 uM. Answer with the label corresponding to your selection.
Response line: I
(I: 95.8%, II: 45.1%)

====

Target: p110β/p85α (Homo sapiens)
Sequence (P42338 whole entry): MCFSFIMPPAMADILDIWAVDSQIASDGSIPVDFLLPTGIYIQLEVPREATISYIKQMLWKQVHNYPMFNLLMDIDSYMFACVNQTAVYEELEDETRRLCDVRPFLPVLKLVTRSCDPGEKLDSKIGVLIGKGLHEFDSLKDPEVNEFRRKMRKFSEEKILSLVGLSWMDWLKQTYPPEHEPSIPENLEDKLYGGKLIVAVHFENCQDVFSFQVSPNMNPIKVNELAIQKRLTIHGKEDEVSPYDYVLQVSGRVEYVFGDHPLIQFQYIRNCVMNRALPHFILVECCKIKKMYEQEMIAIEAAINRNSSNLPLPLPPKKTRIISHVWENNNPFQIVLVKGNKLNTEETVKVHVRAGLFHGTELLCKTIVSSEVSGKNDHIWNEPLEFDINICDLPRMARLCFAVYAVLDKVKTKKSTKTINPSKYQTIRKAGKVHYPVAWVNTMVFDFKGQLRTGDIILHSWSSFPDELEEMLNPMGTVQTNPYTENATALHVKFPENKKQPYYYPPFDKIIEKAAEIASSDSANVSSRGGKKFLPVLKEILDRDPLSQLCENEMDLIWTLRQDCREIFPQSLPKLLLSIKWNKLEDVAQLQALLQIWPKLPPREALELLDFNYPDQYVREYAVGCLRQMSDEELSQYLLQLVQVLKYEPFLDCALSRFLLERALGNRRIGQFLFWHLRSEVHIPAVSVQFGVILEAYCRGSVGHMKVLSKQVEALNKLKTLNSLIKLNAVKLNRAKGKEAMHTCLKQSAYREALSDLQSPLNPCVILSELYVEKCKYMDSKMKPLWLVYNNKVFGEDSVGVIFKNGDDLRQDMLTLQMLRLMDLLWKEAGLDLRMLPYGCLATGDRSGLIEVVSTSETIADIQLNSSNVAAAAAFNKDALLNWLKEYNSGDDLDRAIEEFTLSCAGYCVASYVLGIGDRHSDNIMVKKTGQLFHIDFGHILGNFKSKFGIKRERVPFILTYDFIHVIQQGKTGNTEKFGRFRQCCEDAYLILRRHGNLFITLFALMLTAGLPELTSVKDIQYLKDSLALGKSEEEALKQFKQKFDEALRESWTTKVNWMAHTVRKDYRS
Sequence (P27986 2-724 partner): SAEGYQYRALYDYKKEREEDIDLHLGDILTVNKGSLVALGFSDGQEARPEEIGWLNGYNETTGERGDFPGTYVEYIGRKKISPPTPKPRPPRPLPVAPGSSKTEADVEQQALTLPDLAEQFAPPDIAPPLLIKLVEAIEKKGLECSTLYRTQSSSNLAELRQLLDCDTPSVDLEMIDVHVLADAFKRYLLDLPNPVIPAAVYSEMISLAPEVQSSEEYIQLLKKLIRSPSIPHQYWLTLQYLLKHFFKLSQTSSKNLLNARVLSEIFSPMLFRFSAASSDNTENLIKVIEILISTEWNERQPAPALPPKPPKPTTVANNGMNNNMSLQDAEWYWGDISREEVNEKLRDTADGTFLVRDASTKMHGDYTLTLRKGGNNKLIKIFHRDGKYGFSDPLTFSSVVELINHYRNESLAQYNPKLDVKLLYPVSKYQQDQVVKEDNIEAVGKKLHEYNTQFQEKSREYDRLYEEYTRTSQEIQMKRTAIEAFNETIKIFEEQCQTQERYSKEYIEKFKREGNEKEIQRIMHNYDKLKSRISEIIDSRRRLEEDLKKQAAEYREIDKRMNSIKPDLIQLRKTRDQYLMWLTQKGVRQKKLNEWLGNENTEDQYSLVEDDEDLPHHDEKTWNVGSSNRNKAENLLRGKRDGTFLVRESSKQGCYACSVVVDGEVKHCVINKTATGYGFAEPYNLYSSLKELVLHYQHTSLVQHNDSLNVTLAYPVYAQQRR
Assay: Transcreener KINASE Assay, kinase inhibition of p110β/p85α
Type: biochemical
Conditions: 1 uM test compound
Quantity Name: PI3Kβ IH % @ 1 uM (%)

INSERT INTO assay_data (compound, quantity_name, measurement) VALUES
  ('O=c1c2c(Cl)ccn2nc([C@@H]2CCCN2c2ncnc3[nH]cnc23)n1Cc1ccccn1 [Compound 68]', 'PI3Kβ IH % @ 1 uM', 52.1),
  ('Cc1nc(N)nc(N2C[C@H](C)[C@H]2c2nn3ccc(Cl)c3c(=O)n2-c2cccc(F)c2)c1C#N [Compound 461]', 'PI3Kβ IH % @ 1 uM', 80.5),
  ('Cc1nc(N)nc(N2C[C@H](C)[C@H]2c2nn3ccc(Cl)c3c(=O)n2-c2ccccn2)c1C#N [Compound 478]', 'PI3Kβ IH % @ 1 uM', 96.4),
  ('N#Cc1c[nH]c2ncnc(N3CCC[C@H]3c3nn4ccc(Cl)c4c(=O)n3C3CCC3)c12 [Compound 162]', 'PI3Kβ IH % @ 1 uM', 83.2);

(P) Cc1nc(N)nc(N2C[C@H](C)C2c2nn3ccc(Cl)c3c(=O)n2-c2ccc(F)cc2)c1C#N (stereo partly shown) [Compound 439]
(Q) CC(=O)c1cnc(N)nc1N1CC[C@H]1c1nn2ccc(Cl)c2c(=O)n1-c1cccc(C)n1 [Compound 479]
(R) CC(=O)c1cnc(N)nc1N[C@H](C)c1cc2ncc(Cl)n2c(=O)n1-c1ccccc1 (single isomer, unassigned) [Compound 448]
Prompt line: Rank ascending by PI3Kβ IH % @ 1 uM. Submit the labels in the order that the ranking request calls for.
Response line: Q, R, P

====

Target: UniProt P48736
Test: Transcreener KINASE Assay, kinase inhibition of p110γ
Type: biochemical
Conditions: 1 uM test compound
Quantity Name: PI3Kγ IH % @ 1 uM (%)

INSERT INTO assay_data (compound, measurement_units, measurement) VALUES
  ('CC(=O)c1cnc(N)nc1NC(C)c1cn2ccc(Cl)c2c(=O)n1-c1ccccc1 (stereo not shown)', '%', 98.3);

(I) N#Cc1c[nH]c2ncnc(N3CCC[C@H]3c3nn4ccc(Cl)c4c(=O)n3CC(F)(F)F)c12
(II) Nc1nc2c(c(N3CCC[C@H]3c3nn4ccc(F)c4c(=O)n3-c3ccccc3)n1)C(=O)CCN2
Prompt line: I'd appreciate it if you could identify which of I and II has the greater PI3Kγ IH % @ 1 uM. Answer with the label corresponding to your selection.
Response line: II
(II: 98.0%, I: 61.0%)
